Each recorded value in this set is attributed to paper PMC7070731.

# System: HCT-116 (human colorectal carcinoma) cells
# assay-method-text: MTT cytotoxicity assay, HCT-116
# Type: cell-based
# protocol-conditions: 24 h treatment, read-out: IC50 (nM ± SD) HCT-116
measurement-type: IC50

- compound: "Cc1cc([O][Sn]([CH3])([CH3])[CH3])n2ncnc2n1 [Compound 3, Me3Sn(mtpO)]"
  measured-target: "HCT-116 (human colorectal carcinoma) cells"
  measurement-type: "IC50"
  result: "> 1000 nM"
- compound: "[CH3][Sn]([CH3])([CH3])[O]c1ccn2ncnc2n1 [Compound 1, Me3Sn(5tpO)]"
  measured-target: "HCT-116 (human colorectal carcinoma) cells"
  measurement-type: "IC50"
  result: "> 1000 nM"
- compound: "CCC[CH2][Sn]([CH2]CCC)([CH2]CCC)[O]c1ccn2ncnc2n1 [Compound 2, n-Bu3Sn(5tpO)]"
  measured-target: "HCT-116 (human colorectal carcinoma) cells"
  measurement-type: "IC50"
  result: "70 nM"
- compound: "N.N.[Cl][Pt][Cl] [Cisplatin, reference compound]"
  measured-target: "HCT-116 (human colorectal carcinoma) cells"
  measurement-type: "IC50"
  result: "46000 nM"
- compound: "CCC[CH2][Sn]([CH2]CCC)([CH2]CCC)[O]c1cc(C)nc2ncnn12 [Compound 4, n-Bu3Sn(mtpO)]"
  measured-target: "HCT-116 (human colorectal carcinoma) cells"
  measurement-type: "IC50"
  result: "34 nM"

----------
# System: human bronchial epithelial cells (16-HBE)
# assay-method-text: MTT viability assay, 16-HBE cells
# Assay type: cell-based
# protocol-conditions: 24 h, concentration lethal to 50% of the normal cells, read-out: 16-HBE Cells LC50
Recorded CC50 for the following compounds

- query-smiles: "CCC[CH2][Sn]([CH2]CCC)([CH2]CCC)[O]c1cc(C)nc2ncnn12"
  CC50: "11 µM"
- query-smiles: "CCC[CH2][Sn]([CH2]CCC)([CH2]CCC)[O]c1ccn2ncnc2n1"
  CC50: "17 µM"

----------
# Tested on: intestinal normal-like differentiated Caco-2 cells
# assay-method-text: MTT viability assay, normal-like differentiated Caco-2 cells
# Assay type: cell-based, human
# protocol-conditions: differentiated Caco-2, MTT, 24 h; concentration lethal to 50% of the normal cells; read-out: Normal-Like Intestinal Cells LC50
# Method: HTC116 (human colorectal carcinoma), HepG2 (human hepatocellular carcinoma), MCF-7 (human breast cancer), 16-HBE (human bronchial epithelium) and Caco-2 (human colorectal carcinoma) cell lines were purchased from American Type Culture Collection, Rockville, MD, USA. All cell lines were grown in RPMI medium supplemented with L-glutamine (2 mM), 10% fetal bovine serum (FBS), penicillin (100 U/mL), streptomycin (100 µg/mL) and gentamicin (5 μg/mL). […]
measurement-type: CC50 (µM)

- query-smiles: "CCC[CH2][Sn]([CH2]CCC)([CH2]CCC)[O]c1ccn2ncnc2n1"
  quantitative-result: 6
- query-smiles: "CCC[CH2][Sn]([CH2]CCC)([CH2]CCC)[O]c1cc(C)nc2ncnn12"
  quantitative-result: 5
